Data credit: PubChem BioAssay (NCATS)

test system: DIV17; experiment: qHTS profiling for inhibitors of Plasmodium falciparum proliferation (AID 504749); also: nearly all actives have a fitted effect of over 60% in size; conditions: P. falciparum in erythrocytes, SYBR Green DNA, 72 h; series mostly up to 28.7 µM
Records with an inconclusive call do not appear. Calls of active or inactive are those of the source. Calls follow the shape of the dose curve; as a rule, active = well fitted inhibition curve with a large enough effect; inconclusive = small, poorly fitted or top-dose-only effect; inactive = flat fitted curve, though single readings scatter.
Outcomes: active, inactive

[[record]]
compound = "NC(=O)CC[C@@H](N)C(=O)O"
measurement_target = "DIV17"
class_label = "inactive"

[[record]]
compound = "NS(=O)(=O)c1cc(-c2nn[nH]n2)c(NCc2cccs2)cc1Cl"
measurement_target = "DIV17"
class_label = "inactive"

[[record]]
compound = "CCN(CC)CCOC(=O)C(c1ccccc1)c1ccccc1"
measurement_target = "DIV17"
class_label = "inactive"

[[record]]
compound = "C=CCSCC1Nc2cc(Cl)c(S(N)(=O)=O)cc2S(=O)(=O)N1 (stereo unspecified)"
measurement_target = "DIV17"
class_label = "inactive"

[[record]]
compound = "Cc1cc(=O)[nH]c(=S)[nH]1"
measurement_target = "DIV17"
class_label = "inactive"

[[record]]
compound = "Cc1c(C(=O)NCCO)[n+](=O)c2ccccc2n1[O-]"
measurement_target = "DIV17"
class_label = "inactive"

[[record]]
compound = "COc1nccnc1NS(=O)(=O)c1ccc(N)cc1"
measurement_target = "DIV17"
class_label = "inactive"

[[record]]
compound = "CC(=O)NCc1c(I)c(NC(C)=O)c(I)c(C(=O)O)c1I"
measurement_target = "DIV17"
class_label = "inactive"

[[record]]
compound = "CN/C(=C\\[N+](=O)[O-])NCCSCc1csc(CN(C)C)n1"
measurement_target = "DIV17"
class_label = "inactive"

[[record]]
compound = "CCCCCCCCCCCCCCCCC(C(=O)O)C(O)(CC(=O)O)C(=O)O (stereo unspecified)"
measurement_target = "DIV17"
class_label = "inactive"

[[record]]
compound = "O=C(O)Cc1cn(-c2ccccc2)nc1-c1ccc(Cl)cc1"
measurement_target = "DIV17"
class_label = "inactive"

[[record]]
compound = "CC(=O)Oc1cccc(O)c1"
measurement_target = "DIV17"
class_label = "inactive"

[[record]]
compound = "Cc1cc(-n2nc3ccc(Cl)cc3n2)c(O)c(C(C)(C)C)c1"
measurement_target = "DIV17"
class_label = "inactive"

[[record]]
compound = "O=C(O)c1ccccc1OP(=O)(O)O"
measurement_target = "DIV17"
class_label = "inactive"

[[record]]
compound = "CC(C)C[C@@H](N)C(=O)O"
measurement_target = "DIV17"
class_label = "inactive"

[[record]]
compound = "Cc1ccc(S(=O)(=O)NC(=O)NC2CCCCCCC2)cc1"
measurement_target = "DIV17"
class_label = "inactive"

[[record]]
compound = "CC1CC(OC(=O)c2ccccc2O)CC(C)(C)C1 (stereo unspecified)"
measurement_target = "DIV17"
class_label = "inactive"

[[record]]
compound = "O=C(/C=C/c1ccccc1)OCc1ccccc1"
measurement_target = "DIV17"
class_label = "inactive"

[[record]]
compound = "O=S1(=O)OC(c2ccc(O)cc2)(c2ccc(O)cc2)c2ccccc21"
measurement_target = "DIV17"
class_label = "inactive"

[[record]]
compound = "O=C(NCCCN1CCOCC1)c1ccc(Cl)cc1"
measurement_target = "DIV17"
class_label = "inactive"

[[record]]
compound = "CC(N)CCCC(C)(C)O (stereo unspecified)"
measurement_target = "DIV17"
class_label = "inactive"

[[record]]
compound = "O=C(O)CCCCC1CCSS1 (stereo unspecified)"
measurement_target = "DIV17"
class_label = "inactive"

[[record]]
compound = "CCCNC(C)(C)COC(=O)c1ccccc1"
measurement_target = "DIV17"
class_label = "inactive"

[[record]]
compound = "COc1ccccc1Oc1c(NS(=O)(=O)c2ccc(C(C)(C)C)cc2)nc(-c2ncccn2)nc1OCCO"
measurement_target = "DIV17"
class_label = "inactive"

[[record]]
compound = "Nc1ncnc2c1ncn2[C@@H]1O[C@H](COP(=O)(O)O)[C@@H](O)[C@H]1O"
measurement_target = "DIV17"
class_label = "inactive"

[[record]]
compound = "Cc1ccccc1N=Nc1ccc(N=Nc2c(O)ccc3ccccc23)c(C)c1"
measurement_target = "DIV17"
class_label = "inactive"

[[record]]
compound = "CC(CN(C)C)C(C)(O)Cc1ccc(Cl)cc1 (stereo unspecified)"
measurement_target = "DIV17"
class_label = "active"

[[record]]
compound = "NC(N)=NCCN1CCCCCCC1"
measurement_target = "DIV17"
class_label = "inactive"

[[record]]
compound = "COC(=O)c1cccnc1"
measurement_target = "DIV17"
class_label = "inactive"

[[record]]
compound = "CC(=O)Oc1cccc(C)c1"
measurement_target = "DIV17"
class_label = "inactive"

[[record]]
compound = "O=C(Cn1ccnc1[N+](=O)[O-])NCCO"
measurement_target = "DIV17"
class_label = "inactive"

[[record]]
compound = "CCN(CC)S(=O)(=O)c1ccc(C(=O)O)cc1"
measurement_target = "DIV17"
class_label = "inactive"

[[record]]
compound = "CC(C)(C)C(=O)OCOC(=O)[C@@H]1N2C(=O)[C@@H](NC(=O)[C@H](N)c3ccccc3)[C@H]2SC1(C)C"
measurement_target = "DIV17"
class_label = "inactive"

[[record]]
compound = "C[C@@H]1O[C@@H](OC[C@H]2O[C@@H](Oc3c(-c4ccc(O)c(O)c4)oc4cc(O)cc(O)c4c3=O)[C@H](O)[C@@H](O)[C@@H]2O)[C@H](O)[C@H](O)[C@H]1O"
measurement_target = "DIV17"
class_label = "inactive"

[[record]]
compound = "NS(=O)(=O)c1ccc(C(=O)O)cc1"
measurement_target = "DIV17"
class_label = "inactive"

[[record]]
compound = "CC(=O)Nc1ccc(C(=O)O)cc1"
measurement_target = "DIV17"
class_label = "inactive"


* * *

system: HEK293; test: Cytotoxic Profiling of Annotated Libraries Using Quantitative High-Throughput Screening (AID 1296008); details: Five cell lines viability, CellTiter-Glo ATP luminescence, 48-72 h; hits give low values; also: % is scaled to controls: 0 for no effect and ±100 for the full control effect; nearly all actives have a fitted effect of over 60% in size
Inconclusive results are not listed. Activity calls are given as the source filed them. Calls follow the shape of the dose curve; as a rule, active = well fitted inhibition curve with a large enough effect; inconclusive = small, poorly fitted or top-dose-only effect; inactive = flat fitted curve, though single readings scatter. Where a SMILES comes first, the peptide text is derived from it. Bridges are numbered along the chain shown (N, C = ends). [ ]: non-standard residue; d: D form. hArg = N=C(N)NCCCC[C@H](N)C(=O)O; Mpa = O=C(O)CCS
A collection of compounds and their measured max response
outcome measure: max response

[[record]]
compound = "CCCCCCCC(=O)OCC(COC(=O)CCCCCCC)OC(=O)CCCCCCC"
outcome_measure = "max response"
value = "1.52% (inactive)"

[[record]]
compound = "CCN1CC(CCN2CCOCC2)C(c2ccccc2)(c2ccccc2)C1=O (configuration not stated)"
outcome_measure = "max response"
value = "-5.24% (inactive)"

[[record]]
compound = "O=C(Cn1ccnc1[N+](=O)[O-])NCc1ccccc1"
outcome_measure = "max response"
value = "-3.43% (inactive)"

[[record]]
compound = "CC(C)CCOC(=O)c1ccc(N(C)C)cc1"
outcome_measure = "max response"
value = "-23.8% (inactive)"

[[record]]
compound = "CC(C)(C)NCC(O)COc1cccc2c1CCC(=O)N2 (configuration not stated)"
outcome_measure = "max response"
value = "-0.291% (inactive)"

[[record]]
compound = "CCN[C@H]1CN(CCCOC)S(=O)(=O)c2sc(S(N)(=O)=O)cc21"
outcome_measure = "max response"
value = "-2.35% (inactive)"

[[record]]
compound = "NC(N)=NCCN1CCCCCCC1"
outcome_measure = "max response"
value = "0.733% (inactive)"

[[record]]
compound = "CC(=O)NCc1c(I)c(NC(C)=O)c(I)c(C(=O)O)c1I"
outcome_measure = "max response"
value = "-1.82% (inactive)"

[[record]]
compound = "NC(=O)[C@@H]1CSSCCC(=O)N[C@@H](CCCCN=C(N)N)C(=O)NCC(=O)N[C@@H](CC(=O)O)C(=O)N[C@@H](Cc2c[nH]c3ccccc23)C(=O)N2CCC[C@H]2C(=O)N1 ([Mpa][hArg]GDWPC-NH2; disulfide 1-7)"
outcome_measure = "max response"
value = "-7.03% (inactive)"

[[record]]
compound = "CN1C(C)(C)CCCC1(C)C"
outcome_measure = "max response"
value = "-21.6% (inactive)"

[[record]]
compound = "CCCCCCCCCCCCCCCCCCO"
outcome_measure = "max response"
value = "-5.18% (inactive)"

[[record]]
compound = "CN1CCCN=C1COC(=O)C(O)(c1ccccc1)C1CCCCC1 (configuration not stated)"
outcome_measure = "max response"
value = "-8.47% (inactive)"

[[record]]
compound = "NC(N)=NS(=O)(=O)c1ccc(N)cc1"
outcome_measure = "max response"
value = "-6.28% (inactive)"

[[record]]
compound = "O=C(/C=C/c1ccc(O)c(O)c1)O[C@@H]1C[C@@](OC(=O)/C=C/c2ccc(O)c(O)c2)(C(=O)O)C[C@@H](O)[C@@H]1O"
outcome_measure = "max response"
value = "-4.83% (inactive)"

[[record]]
compound = "O=C(O)CCCCC1CCSS1 (configuration not stated)"
outcome_measure = "max response"
value = "0.811% (inactive)"

[[record]]
compound = "COc1ccccc1OC(=O)Oc1ccccc1OC"
outcome_measure = "max response"
value = "-4.48% (inactive)"

[[record]]
compound = "CCCNC(C)C(=O)Nc1c(C)csc1C(=O)OC (configuration not stated)"
outcome_measure = "max response"
value = "-4.55% (inactive)"

